The reported measurements were obtained from the supplement of paper PMC11865577.

- Tested on: TO-N3-2 (biotin conjugate)
- Assay Procedure: pull-down binding Z-score (relative to library population); higher = stronger binding
- Experimental Context: RNA library: Library-2
Each record here notes measured pull-down binding Z-score.

Sequence Record	pull-down binding Z-score
CAUGUUAAGUGUUGUCCUACAG [hsa-mir-5087]	0.127
CUGGUAGUAUAAAACCCAG [hsa-mir-934]	-0.468
GAAACAUCUUUUAC [hsa-mir-4514]	-0.469
GUGGUAGUUAUACUAAUGACAAAGCUUGCCCAUUGAUUGCUGC [DMSMaPseq_invitro_SARS-CoV-2_Motif_161]	0.208
GCCCGGGCACCGCCCCUU [hsa-mir-718]	0.973
GCGCUGCCAGAAACUGGCGGAGCGC [bulge-GG]	-0.22
GAAGCCUUGAUCAGAAGCUAGGAAGGCUUC [hsa-mir-4762]	0.593
GGCUGUAGUUGUGAUCAACUCCGCGAACCCAUGCUUCAGUCAGCUGAUGCACAAUCGUUUUUAAACGGGUUUGCGGUGUAAGUGCAGCC [DMSMaPseq_invitro_SARS-CoV-2_Motif_241]	0.388
AUUUGAACUCUACUAAUGUCACUAUUGCAACCUACUGUACUGGUUCUAUACCUUGUAGUGUUUGUCUUAGUGGUUUAGAU	-0.913
CUUUUGAAGAAG [SHAPE_invivo_SARS-CoV-2_Motif_195]	-1.33
GAACCUUGCUCUUCUGGAACAUACGAGGGCAAUUC	-0.153
UUCUGUUGUCUGAAAGAAACCAA [hsa-mir-518d]	0.126
ACAAUAUGCUAUUAUAAUCGUAUGGCAUUGU [hsa-mir-2355]	-0.994
